B1: Tesmin, residues 368 to 403; numbered along this chain, Q9Y4I5 (parent)
chain: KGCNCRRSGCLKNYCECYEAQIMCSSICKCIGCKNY

# Variants of: B1
# Experiment: abundance fitness (aPCA) (normalised: wild type 0, dead -1); higher = more abundant; growth selection in yeast, the domain comes from the species named
# Settings: Homo sapiens
// abundance fitness lookup, one value per entry

Mutation spec: I27M
abundance fitness: -0.014
--
Mutation spec: C15F
abundance fitness: -0.742
--
Mutation spec: G9D
abundance fitness: 0.111
--
Mutation spec: M23G
abundance fitness: 0.127
--
Mutation spec: C17P
abundance fitness: -0.312
--
Mutation spec: E16T
abundance fitness: -0.39
--
Mutation spec: C28V
abundance fitness: -0.42
--
Mutation spec: Y36L
abundance fitness: -0.05
--
Mutation spec: E19C
abundance fitness: -0.132
--
Mutation spec: C5T
abundance fitness: -0.431
--
Mutation spec: N13D
abundance fitness: -0.092
--
Mutation spec: R6E
abundance fitness: 0.214
--
Mutation spec: G9V
abundance fitness: -0.334
--
Mutation spec: E16W
abundance fitness: -0.466
--
Mutation spec: C10Y
abundance fitness: -0.439
--
Mutation spec: K29G
abundance fitness: 0.24
--
Mutation spec: Q21G
abundance fitness: -0.004
--
Mutation spec: Q21N
abundance fitness: -0.124
--
Mutation spec: I31L
abundance fitness: -0.021
--
Mutation spec: C30H
abundance fitness: -0.498
--
Mutation spec: C17K
abundance fitness: -0.337
--
Mutation spec: Y18F
abundance fitness: -0.089
--
Mutation spec: C3Q
abundance fitness: -0.462
--
Mutation spec: S26N
abundance fitness: -0.079
--
Mutation spec: Y36P
abundance fitness: 0.31
--
Mutation spec: Q21M
abundance fitness: -0.48
--
Mutation spec: Y14G
abundance fitness: 0.096
--
Mutation spec: G32P
abundance fitness: -0.082
--
Mutation spec: C30T
abundance fitness: -0.468
--
Mutation spec: I27L
abundance fitness: -0.089
--
Mutation spec: M23A
abundance fitness: -0.18
